Attribution: ChEMBL document CHEMBL1961873

tested_target: Serine/threonine-protein kinase BRSK1 (Homo sapiens) (UniProt Q8TDC3)
Sequence (Q8TDC3 whole entry): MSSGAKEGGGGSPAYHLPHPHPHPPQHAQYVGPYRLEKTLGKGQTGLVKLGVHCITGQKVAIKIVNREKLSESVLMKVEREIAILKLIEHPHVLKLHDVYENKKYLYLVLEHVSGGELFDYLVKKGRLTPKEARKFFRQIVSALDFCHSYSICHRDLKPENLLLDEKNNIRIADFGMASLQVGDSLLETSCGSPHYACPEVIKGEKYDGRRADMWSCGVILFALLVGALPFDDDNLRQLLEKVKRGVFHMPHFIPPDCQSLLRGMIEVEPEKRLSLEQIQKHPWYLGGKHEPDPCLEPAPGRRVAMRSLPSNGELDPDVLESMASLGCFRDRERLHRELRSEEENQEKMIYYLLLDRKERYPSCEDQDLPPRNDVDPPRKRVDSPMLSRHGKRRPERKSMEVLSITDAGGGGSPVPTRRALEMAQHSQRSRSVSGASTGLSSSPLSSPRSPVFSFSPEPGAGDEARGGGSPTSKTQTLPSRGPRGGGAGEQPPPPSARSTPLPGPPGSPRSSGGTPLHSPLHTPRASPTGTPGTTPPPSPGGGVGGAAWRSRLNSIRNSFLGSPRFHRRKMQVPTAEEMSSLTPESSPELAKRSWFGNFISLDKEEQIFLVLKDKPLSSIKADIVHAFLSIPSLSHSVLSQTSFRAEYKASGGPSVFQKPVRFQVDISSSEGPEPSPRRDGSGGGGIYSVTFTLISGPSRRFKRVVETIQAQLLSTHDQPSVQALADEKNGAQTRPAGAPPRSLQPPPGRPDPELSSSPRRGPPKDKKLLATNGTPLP
condition_parameters: at 0.1 µM
Description: GSK_PKIS: BRSK1 mean inhibition at 0.1 uM [Nanosyn]
Provide the reported inhibition of each item.
One number for each entry, in %.

Take a look at these entries with their results.
>>> val("COc1cc2ncn(-c3cc(O[C@@H](C)c4ccccc4Cl)c(C(N)=O)s3)c2cc1OC")
8.66
>>> val("CS(=O)(=O)CCN(CC#N)Cc1ccc(-c2ccc3ncnc(Nc4ccc(OCc5cccc(F)c5)c(Cl)c4)c3c2)o1")
0.56
>>> val("CC1=C(C(=O)Nc2ccc3[nH]ncc3c2)C(c2ccc(F)cc2)NC(=O)N1 (stereo not given)")
1.49
>>> val("COc1cc2ncn(-c3cc(O[C@H](C)c4ccccc4Cl)c(C(N)=O)s3)c2cc1OC")
30.1
>>> val("c1cnn2ncc(-c3ccnc(Nc4ccc5c(c4)OCCO5)n3)c2c1")
0.46

Below are some molecules; for each one, tell me its inhibition.
1. O=C1Nc2ccc(C(=O)c3ccco3)cc2C1=Cc1cc(Cl)c(O)c(Cl)c1
2. COc1cc2ncn(-c3cc(OCc4ccccc4Cl)c(C(N)=O)s3)c2cc1OC
3. COc1ccccc1Nc1ncc(-c2ccccc2)o1
4. Fc1cccc(COc2ccc(Nc3ncnc4sc(-c5cccs5)cc34)cc2Cl)c1
5. COc1ccc(COc2ccc(Cc3cnc(N)nc3N)cc2OC)cc1

1: 1.94; 2: 7.81; 3: -0.58; 4: 0.56; 5: 4.29
